experiment: Half life in rat at 10 mg/kg, po; type: ADME, organism-based; parameters: dose 10 mg/kg, route oral; conditions: in vivo
quantity: half-life (min)

{"columns": ["smilesData", "measurementUnit", "resultNumber"],
 "data": [
  ["CN(C)c1ccc([C@H]2C[C@@]3(C)[C@@H](CC[C@@]3(O)C#Cc3ccc(F)cc3)[C@@H]3OCC4=CC(=O)CCC4=C32)cc1", "min", 413]
]}

* * *

assay: Cmax in rat at 30 mg/kg, po; assay type: ADME, organism-based; design: dose 30 mg/kg, route oral; settings: in vivo

{"columns": ["smilesData", "measurementUnit", "Cmax"],
 "data": [
  ["CC#C[C@]1(O)CC[C@H]2[C@@H]3CCC4=CC(=O)CCC4=C3[C@@H](c3ccc(N(C)C)cc3)C[C@@]21C", "ng/mL", 53.8]
]}

* * *

experiment: Half life in rat at 30 mg/kg, po; format: ADME, organism-based; set-up: dose 30 mg/kg, route oral; settings: in vivo
quantity: half-life (h)

{"columns": ["compound", "resultNumber"],
 "data": [
  ["CC#C[C@]1(O)CC[C@H]2[C@@H]3CCC4=CC(=O)CCC4=C3[C@@H](c3ccc(N(C)C)cc3)C[C@@]21C [MIFEPRISTONE]", 5.56]
]}

* * *

system: Rattus norvegicus; test: AUC (0 to infinity) in rat at 10 mg/kg, po; type: ADME, organism-based, Plasma; parameters: dose 10 mg/kg, route oral, time infinity; conditions: in vivo
quantity: AUC (ng·h/mL)

{"columns": ["smilesData", "quantity", "measurementUnit", "resultNumber"],
 "data": [
  ["CN(C)c1ccc([C@H]2C[C@@]3(C)[C@@H](CC[C@@]3(O)C#Cc3ccc(F)cc3)[C@@H]3OCC4=CC(=O)CCC4=C32)cc1", "AUC", "ng·h/mL", 505]
]}

* * *

experiment: Mean retention time in rat at 10 mg/kg, po; type: ADME, organism-based; parameters: dose 10 mg/kg, route oral; settings: in vivo
quantity: MRT

{"columns": ["smilesData", "result"],
 "data": [
  ["CN(C)c1ccc([C@H]2C[C@@]3(C)[C@@H](CC[C@@]3(O)C#Cc3ccc(F)cc3)[C@@H]3OCC4=CC(=O)CCC4=C32)cc1", "9.4 h"]
]}

* * *

experiment: Tmax in rat at 10 mg/kg, po; type: ADME, organism-based; design: dose 10 mg/kg, route oral; settings: in vivo
quantity: Tmax (h)

{"columns": ["smilesData", "quantity", "resultNumber"],
 "data": [
  ["CN(C)c1ccc([C@H]2C[C@@]3(C)[C@@H](CC[C@@]3(O)C#Cc3ccc(F)cc3)[C@@H]3OCC4=CC(=O)CCC4=C32)cc1", "Tmax", 3]
]}

* * *

test system: Rattus norvegicus; assay: AUC (0 to infinity) in rat at 30 mg/kg, po; format: ADME, organism-based, Plasma; design: time infinity, dose 30 mg/kg, route oral; conditions: in vivo

{"columns": ["smilesData", "experimentalSystem", "measurementUnit", "AUC"],
 "data": [
  ["CC#C[C@]1(O)CC[C@H]2[C@@H]3CCC4=CC(=O)CCC4=C3[C@@H](c3ccc(N(C)C)cc3)C[C@@]21C", "Rattus norvegicus", "ng·h/mL", 3570]
]}

* * *

test: Mean retention time in rat at 30 mg/kg, po; assay type: ADME, organism-based; parameters: dose 30 mg/kg, route oral; settings: in vivo

{"columns": ["compound", "MRT"],
 "data": [
  ["CC#C[C@]1(O)CC[C@H]2[C@@H]3CCC4=CC(=O)CCC4=C3[C@@H](c3ccc(N(C)C)cc3)C[C@@]21C [MIFEPRISTONE]", "8 h"]
]}
